Provenance of the data: patent US20160374944A1

Tested on: Prostate CSCs
procedure-text: cell viability, trypan blue, Vi-CELL analyzer
Type: cell-based, human
test-parameters: 3 days
reported-property: cell viability

// query cell viability value for entry C=CCSSSCC=C [diallyl trisulphide] inhibit cell viability

Given the molecule Oc1ccc(C=Cc2cc(O)cc(O)c2)cc1 [resveratrol] , what is its reported cell viability? inhibit cell viability

// query cell viability value for entry C=CCc1ccc(O)c(-c2ccc(O)c(CC=C)c2)c1 [honokiol] inhibit cell viability
